- test.system: T1, Human IL2Rγ extracellular domain expressed with a C-terminal myc-myc-hexahistidine tag (human)
- T1 construct: also called hIL-2Rg-MMH; hIL-2RG-MMH
- T1 chain: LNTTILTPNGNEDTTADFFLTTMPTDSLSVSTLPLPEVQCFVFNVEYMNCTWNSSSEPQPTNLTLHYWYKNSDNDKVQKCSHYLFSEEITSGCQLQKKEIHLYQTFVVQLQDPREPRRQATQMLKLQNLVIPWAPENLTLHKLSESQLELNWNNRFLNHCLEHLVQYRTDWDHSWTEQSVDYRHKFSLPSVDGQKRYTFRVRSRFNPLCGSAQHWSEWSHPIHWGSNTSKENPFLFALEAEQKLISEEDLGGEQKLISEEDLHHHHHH
- test.protocol: SPR Biacore 4000, mAb captured by anti-hFc, HBS-ET, 37C
Please respond with reported kon for every item in the list.
Numbers only, in M⁻¹ s⁻¹.

Illustrative cases are given below, each with its answer.
binder	kon / M⁻¹ s⁻¹
H4H12863P (antibody, human IgG4 S228P, kappa, V domains shown, anti-IL2Rγ monoclonal antibody expressed with human IgG4 Fc) VH: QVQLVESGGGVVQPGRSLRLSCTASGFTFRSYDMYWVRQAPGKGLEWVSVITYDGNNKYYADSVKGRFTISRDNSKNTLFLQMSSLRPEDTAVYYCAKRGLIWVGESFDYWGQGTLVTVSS VL: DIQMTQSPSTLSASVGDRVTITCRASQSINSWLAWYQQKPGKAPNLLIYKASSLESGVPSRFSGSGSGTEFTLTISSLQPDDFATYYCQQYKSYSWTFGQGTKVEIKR	367000
H4H13538P (antibody, human IgG4 S228P, kappa, V domains shown, anti-IL2Rγ monoclonal antibody expressed with human IgG4 Fc) VH: EVQLVESGGGLVQPGGSLGLSCAASGFTFSNYAMSWVRQAPGKGLEWVSAVSGGGGGTYYADSVKGRFTISRDNSKNTVLLQMNSLRAEDTAVYYCARGRTGGLDYWGPGTLVTVSS VL: DVVMTQSPLSLPVIFGQPASISCRSSQSLVDSDGNTYLNWLQQRPGQSPRRLIYEVSNRDSGVPDRFSGSGSGTDFTLTISRVEAEDVGIYYCMQGTRWPPTFGGGTKVEIKR	319000
H4H12889P (antibody, human IgG4 S228P, kappa, V domains shown, anti-IL2Rγ monoclonal antibody expressed with human IgG4 Fc; also called REGN7257) VH: EVQLVESGGGLVQPGGSLRLSCAASGFIFSSYEMHWVRQAPGKGLEWISYISSSGTTIYYADSVKGRFTISRDNAKNSLYLHMNSLRAEDTAVYYCTRARITGTFDVFDIWGQGTMVTVSS VL: DIQMTQSPSSLSASVGDRVTITCRASQSISSYLNWYQQKPGKAPKLLIFAASNLQSGVPSRFSGSRSGTDFTLTISSLQPEDFATYYCQQNYNIPYTFGQGTKLEIKR	465000

Okay, now this binder:
Recorded kon of H4H12890P (antibody, human IgG4 S228P, kappa, V domains shown, anti-IL2Rγ monoclonal antibody expressed with human IgG4 Fc) VH: EVQLVESGGGLVQPGGSLRLSCAASGFTFNNYAMHWVRQAPGKGLEYVSSISSSGGSTYYEDSVKGRFTISRDNSKNTLYLQMGSLRAEDMAVYYCARSFYGSGTYYDTFDMWGQGTMVTVSS VL: DIQMTQSPSSLSASIGDRVTITCRASQSISRYLNWYQQKPGKAPKLLIYAASSLQSGVPSRFSASGSGTDFTLTISSLQPEDFATYYCQQSYSTPFTFGQGTKLEIKR , please.
95100
